# Species: Rattus norvegicus
# TEST: Open TG-GATES - Regimen: Daily Repeat
# Type: toxicity, organism-based, Sprague-Dawley
# Parameters: regimen Daily Repeat, gender Male, age 6 weeks
# EXPERIMENTAL_CONTEXT: in vivo, po, 0 mg/kg, […], tissue Blood, route gavage, dose level Control, time 7 day
Recorded MCH values for a group of compounds are listed next.
QUANTITY_NAME: MCH (pg)

[[record]]
compound = "CC(S)C(=O)NCC(=O)O (stereo unspecified)"
value_units = "pg"
observed_value = 20.7

[[record]]
compound = "CCN(CC)C(=S)SSC(=S)N(CC)CC"
value_units = "pg"
observed_value = 20.3

[[record]]
compound = "Nc1ccc(Cc2ccc(N)cc2)cc1"
value_units = "pg"
observed_value = 20.9

[[record]]
compound = "NS(=O)(=O)c1cc(C(=O)O)c(NCc2ccco2)cc1Cl [FUROSEMIDE]"
value_units = "pg"
observed_value = 21.2

[[record]]
compound = "O=c1ccc2ccccc2o1"
value_units = "pg"
observed_value = 21.3

[[record]]
compound = "CC(=O)[C@@]1(O)CC[C@H]2[C@@H]3C=C(Cl)C4=CC(=O)CC[C@]4(C)[C@H]3CC[C@@]21C"
value_units = "pg"
observed_value = 20.3

[[record]]
compound = "CCCCNC(=O)NS(=O)(=O)c1ccc(C)cc1 [TOLBUTAMIDE]"
value_units = "pg"
observed_value = 20.8

[[record]]
compound = "CCO"
value_units = "pg"
observed_value = 20.7

[[record]]
compound = "O=C(O)c1ccccc1Nc1ccccc1"
value_units = "pg"
observed_value = 20.5

[[record]]
compound = "CN(C/C=C/C#CC(C)(C)C)Cc1cccc2ccccc12"
value_units = "pg"
observed_value = 20.8

[[record]]
compound = "CN(CCOc1ccc(CC2SC(=O)NC2=O)cc1)c1ccccn1.O=C(O)/C=C\\C(=O)O (stereo unspecified) [ROSIGLITAZONE MALEATE]"
value_units = "pg"
observed_value = 20.8


* * *

# Organism: Rattus norvegicus
# TEST: Open TG-GATES - Regimen: Daily Repeat
# Format: toxicity, organism-based, Sprague-Dawley
# Set-up: regimen Daily Repeat, gender Male, age 6 weeks
# EXPERIMENTAL_CONTEXT: in vivo, po, 100 mg/kg, 72 h, tissue Plasma, route gavage, dose level Low, time 3 day
Listed compounds paired with reported gamma-GTP
QUANTITY_NAME: gamma-GTP (IU/L)

[[record]]
compound = "CC(=O)[C@@]1(O)CC[C@H]2[C@@H]3C=C(Cl)C4=CC(=O)CC[C@]4(C)[C@H]3CC[C@@]21C"
quantity_name = "gamma-GTP"
observed_value = 1.6

[[record]]
compound = "O=C(O)c1ccccc1Nc1ccccc1"
quantity_name = "gamma-GTP"
observed_value = 1.2

[[record]]
compound = "CC(S)C(=O)NCC(=O)O (centres undefined)"
quantity_name = "gamma-GTP"
observed_value = 1.6

[[record]]
compound = "CCCCNC(=O)NS(=O)(=O)c1ccc(C)cc1 [TOLBUTAMIDE]"
quantity_name = "gamma-GTP"
observed_value = 1


* * *

# Organism: Rattus norvegicus
# TEST: Open TG-GATES - Regimen: Daily Repeat
# Format: toxicity, organism-based, Sprague-Dawley
# Parameters: regimen Daily Repeat, gender Male, age 6 weeks
# EXPERIMENTAL_CONTEXT: in vivo, po, 100 mg/kg, […], tissue Plasma, route gavage, dose level Low, time 7 day
QUANTITY_NAME: RALB (g/dL)

[[record]]
compound = "CC(=O)[C@@]1(O)CC[C@H]2[C@@H]3C=C(Cl)C4=CC(=O)CC[C@]4(C)[C@H]3CC[C@@]21C [CHLORMADINONE]"
value_units = "g/dL"
observed_value = 3.1

[[record]]
compound = "O=C(O)c1ccccc1Nc1ccccc1 [FENAMIC ACID]"
value_units = "g/dL"
observed_value = 2.7

[[record]]
compound = "CC(S)C(=O)NCC(=O)O (centres undefined) [TIOPRONIN]"
value_units = "g/dL"
observed_value = 3

[[record]]
compound = "CCCCNC(=O)NS(=O)(=O)c1ccc(C)cc1 [TOLBUTAMIDE]"
value_units = "g/dL"
observed_value = 2.6

